Tgt: human 5-HT2C receptor (Homo sapiens)
Experiment Description: 5-HT2C receptor-stimulated calcium mobilization (FLIPR) in CHO cells
Type: cell-based
Condition Summary: calcium mobilization, CHO cells stably expressing human 5-HT2C; read-out: 5-HT2C Function EC50
Recorded Endpoint: EC50 (nM)
# output: bare number, implied unit nM

Look over these answered cases.
CNCC1Cc2cc(C)cc(-c3cc(Cl)ccc3Cl)c2O1 (single isomer, unassigned; (-)) [Example 488]    132
CNCC1Cc2cc(C)cc(-c3c(Cl)cccc3Cl)c2O1 (racemic)    6
COc1cc2c(c(-c3cc(Cl)ccc3Cl)c1)OC(CN)C2 (single isomer, unassigned; (+)) [Example 368]    4
Cc1ccccc1-c1c(F)ccc2c1OC(CN)C2 (racemic)    0.4
CNCC1Cc2cc(C)cc(-c3c(C)cccc3C)c2O1 (racemic)    39

For the record CNCC1Cc2cc(F)cc(-c3ccccc3OC)c2O1 (racemic) , what value of EC50 is listed for human 5-HT2C receptor (Homo sapiens)? 5

Moving on to the next molecule: CNCC1Cc2cc(C)cc(-c3cccc(OC)c3OC)c2O1 (racemic) [Example 484] 43

And for NCC1Cc2cccc(-c3ccc(Cl)cc3Cl)c2O1 (racemic) [Example 83] ? 7.9

Then this molecule: NCC1Cc2cc(Cl)cc(-c3cc(F)ccc3F)c2O1 (racemic) 79

Input CNCC1Cc2cccc(-c3ccc(OC)cc3OC)c2O1 (racemic) 17

Now the molecule COc1cc2c(c(-c3ccccc3OC)c1)OC(CN)C2 (racemic) 8

Note, next up: CNCC1Cc2cc(OC)cc(-c3ccccc3C)c2O1 (racemic) 8

---

The reader will find reported melting point values listed item by item below.
Where a name gives a salt, the structure may show the parent alone.

These recorded examples may help you get a feel for the data.
CNCC1Cc2cc(Cl)cc(-c3ccsc3)c2O1 (single isomer, unassigned; (+)) (as salt: hydrochloride) [Example 93]    263 to 266 °C
NCC1Cc2cc(Cl)cc(-c3ccsc3)c2O1 (racemic) (as salt: hydrochloride) [Example 90]    230 °C (dec.)
CC1(CN)Cc2cc(Cl)cc(-c3ccsc3)c2O1 (racemic) (as salt: hydrochloride) [Example 113]    295 to 298 °C (dec.)
NCC1Cc2cccc(-c3cccc4ccccc34)c2O1 (racemic) (as salt: hydrochloride) [Example 33]    120 to 124 °C
CCNCC1Cc2cccc(-c3c(Cl)cccc3Cl)c2O1 (racemic) (as salt: hydrochloride) [Example 390]    195 to 197 °C

Quick one: melting point for NCC1Cc2c(F)c(F)cc(-c3ccccc3)c2O1 (racemic) (as salt: hydrochloride) [Example 109] ? > 240 °C

Entry to check: Cc1ccccc1-c1cc(C#N)cc2c1OC(CN)C2 (racemic) (as salt: hydrochloride) [Example 311] 127 to 129 °C

Request: CC(C)(C)/C=C/c1cccc2c1OC(CN)C2 (racemic) (as salt: hydrochloride) [Example 117] 216 to 218 °C

Ok, now NCC1Cc2cccc(-c3ccccc3F)c2O1 (single isomer, unassigned; (+)) (as salt: hydrochloride) [Example 51] 227 to 228 °C

---

Tgt: human 5-HT2C receptor (Homo sapiens, UniProt P28335)
Sequence (P28335 33-458): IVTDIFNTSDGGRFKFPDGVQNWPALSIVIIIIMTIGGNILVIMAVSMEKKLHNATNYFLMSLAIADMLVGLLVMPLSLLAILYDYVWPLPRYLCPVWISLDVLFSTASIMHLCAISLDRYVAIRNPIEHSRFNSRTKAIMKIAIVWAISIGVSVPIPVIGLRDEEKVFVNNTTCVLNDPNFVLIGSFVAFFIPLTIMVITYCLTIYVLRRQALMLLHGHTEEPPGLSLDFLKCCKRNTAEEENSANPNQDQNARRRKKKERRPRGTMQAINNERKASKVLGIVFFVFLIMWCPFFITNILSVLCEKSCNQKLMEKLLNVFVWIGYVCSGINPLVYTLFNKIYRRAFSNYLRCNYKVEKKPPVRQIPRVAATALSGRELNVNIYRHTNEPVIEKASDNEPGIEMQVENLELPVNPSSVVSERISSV
Experiment Description: 5-HT2C receptor-stimulated calcium mobilization (FLIPR) in CHO cells;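 also: Fluo-3-AM fluorescence read on FLIPR every 1 s, agonist added after 10 baseline reads, response taken as peak minus lowest raw fluorescence count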
Format: cell-based
Condition Summary: calcium mobilization, CHO cells stably expressing human 5-HT2C; read-out: 5-HT2C Function EC50
pEC50: −log10 of the molar value.
Note to self: values exactly at 7 are class 1. So pEC50 at or above 7 is class 1, below is class 0.

COc1ccc(-c2cc(C)cc3c2OC(CN)C3)cc1 (racemic)    class 1
CNCC1Cc2cccc(-c3ccccc3OC)c2O1 (racemic)    class 1
NCC1Cc2cccc(-c3ccsc3)c2O1 (single isomer, unassigned; (+)) [Example 45]    class 1
CNCC1Cc2cc(OC)cc(-c3ccccc3Cl)c2O1 (racemic)    class 1
COc1ccc(Cl)cc1-c1cccc2c1OC(CN)C2 (racemic)    class 1

Confirm if pEC50 reported for the molecule NCC1Cc2cc(F)cc(-c3cccnc3)c2O1 (racemic) [Example 206] is 7 or above. class 1

Now consider Cc1cccc(C)c1-c1cc(F)cc2c1OC(CN)C2 (single isomer, unassigned; (+)) [Example 228] . class 0

Try this molecule too: CNCC1Cc2cc(F)cc(-c3cc(OC)ccc3C)c2O1 (racemic) class 1

Try CNCC1Cc2cc(F)cc(-c3ccccc3Cl)c2O1 (racemic) next. class 1

Similarly, NCC1Cc2cccc(-c3ccsc3)c2O1 (racemic) [Example 44] ? class 1

Ok, now NCC1Cc2cccc(Cc3ccccc3)c2O1 (single isomer, unassigned; (+)) [Example 16] class 0

NCC1Cc2cccc(C3CCCC3)c2O1 (single isomer, unassigned; (-)) [Example 9] ? class 0

Let us now turn to Cc1cccc(C)c1-c1cccc2c1CC(CN)O2 (single isomer, unassigned; (+)) class 0
